Origin of the recorded values: paper PMC4791264

Tested on: SD rats
Experiment: Effect on rat hemodynamics (left ventricular pressure, heart rate)
Conditions: 0.5 mg/kg; anesthetized SD rats; 3 min after administration

| Compound | LVSP |
| --- | --- |
| COc1cccc(C[N+]2(CCCC(=O)c3ccc(F)cc3)CCC(O)(c3ccc(Cl)cc3)CC2)c1 (stereo not drawn) | 146.66 |
| COc1ccccc1C[N+]1(CCCC(=O)c2ccc(F)cc2)CCC(O)(c2ccc(Cl)cc2)CC1 (stereo not drawn) | 148.98 |
| COC(=O)C1=C(C)NC(C)=C(C(=O)OC)C1c1ccccc1[N+](=O)[O-] | 132.11 |
| COc1ccc([C@@H]2Sc3ccccc3N(CCN(C)C)C(=O)[C@@H]2OC(C)=O)cc1 | 130.25 |
| COc1ccc(CCN(C)CCCC(C#N)(c2ccc(OC)c(OC)c2)C(C)C)cc1OC (stereo not drawn) | 112.74 |
| COc1ccc(C[N+]2(CCCC(=O)c3ccc(F)cc3)CCC(O)(c3ccc(Cl)cc3)CC2)cc1 (stereo not drawn) | 145.38 |
